# System: Mus musculus
# assay_overview: Antimalarial activity against Plasmodium berghei strain in mice (Mus musculus) by parentral route and change in mean survival time in days was determined at 160 mg/kg subcutaneous dose
# Format: functional
measurement_name: Delta MST (days)
Give the value, in units of days, as a plain number.

Some compounds with recorded Delta MST:
NNc1nc(N)nc2ccc(Sc3cccc(C(F)(F)F)c3)cc12: 6.9
CONc1nc(N)nc2ccc(Sc3cccc(C(F)(F)F)c3)cc12: 9.7
NNc1nc(N)nc2ccc(S(=O)(=O)c3ccc4ccccc4c3)cc12: 2.3

Shifting focus to the compound that follows.
Please state recorded Delta MST (tested on Mus musculus) of O=S(=O)(c1ccc2ccccc2c1)c1ccc2nc(NO)nc(NO)c2c1 5.9
